B1: TPR t1 (parent)
chain: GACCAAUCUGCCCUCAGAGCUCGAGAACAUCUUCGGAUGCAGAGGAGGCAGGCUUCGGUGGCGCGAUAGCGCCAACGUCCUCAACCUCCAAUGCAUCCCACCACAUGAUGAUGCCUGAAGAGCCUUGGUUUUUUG

# Variants of: B1
# Experiment: polymerase ribozyme fitness, log enrichment relative to wild type (log ratio); higher = more active; in vitro selection for triplet polymerase activity
Each record here notes measured polymerase ribozyme fitness (log ratio).
Endpoint Name: polymerase ribozyme fitness (log ratio)

Variant Name: C11A A121C
Experimental Value: 1.02
//
Variant Name: A74U C89U
Experimental Value: -0.535
//
Variant Name: G52C G71U C73U C104U G120C
Experimental Value: -2.42
//
Variant Name: U92A C114U
Experimental Value: -3.08
//
Variant Name: A41G G44C G63A C102U C124A G128A
Experimental Value: -4.69
//
Variant Name: C8U C13A G44U C72A C79U C85A
Experimental Value: -3.38
//
Variant Name: A27U G52A C88U U96A
Experimental Value: -4.5
//
Variant Name: C8U G48A C72U
Experimental Value: 0.0222
//
Variant Name: C62G C115A
Experimental Value: -1.81
//
Variant Name: A2U C104A C124U U130A
Experimental Value: -2.07
//
Variant Name: C89U C97U
Experimental Value: -0.579
